Data credit: ChEMBL document CHEMBL1143275

Target: Metabotropic glutamate receptor 4 (Homo sapiens, UniProt Q14833)
Sequence (Q14833 whole entry): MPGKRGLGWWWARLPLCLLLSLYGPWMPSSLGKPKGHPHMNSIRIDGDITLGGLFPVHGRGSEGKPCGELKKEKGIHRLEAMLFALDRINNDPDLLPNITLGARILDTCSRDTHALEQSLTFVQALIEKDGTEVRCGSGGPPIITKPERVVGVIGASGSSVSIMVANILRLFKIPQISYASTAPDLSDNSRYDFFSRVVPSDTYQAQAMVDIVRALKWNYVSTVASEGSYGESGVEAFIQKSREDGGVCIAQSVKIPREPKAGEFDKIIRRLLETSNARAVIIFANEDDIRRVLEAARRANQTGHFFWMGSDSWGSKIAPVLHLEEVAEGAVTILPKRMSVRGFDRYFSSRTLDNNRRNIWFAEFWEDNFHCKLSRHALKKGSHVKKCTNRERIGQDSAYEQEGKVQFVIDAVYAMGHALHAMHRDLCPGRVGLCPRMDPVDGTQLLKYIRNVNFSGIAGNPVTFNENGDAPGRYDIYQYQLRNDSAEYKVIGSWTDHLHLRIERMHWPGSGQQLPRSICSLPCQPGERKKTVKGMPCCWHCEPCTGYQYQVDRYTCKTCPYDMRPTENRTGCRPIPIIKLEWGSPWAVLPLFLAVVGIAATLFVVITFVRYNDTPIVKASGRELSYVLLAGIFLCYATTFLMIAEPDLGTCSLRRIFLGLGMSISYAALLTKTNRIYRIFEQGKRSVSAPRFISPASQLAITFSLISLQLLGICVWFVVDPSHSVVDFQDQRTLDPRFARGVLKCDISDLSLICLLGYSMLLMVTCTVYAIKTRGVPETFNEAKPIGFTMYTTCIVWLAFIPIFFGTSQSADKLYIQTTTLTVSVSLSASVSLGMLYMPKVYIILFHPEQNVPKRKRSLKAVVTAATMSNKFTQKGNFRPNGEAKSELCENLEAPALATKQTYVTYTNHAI
Assay: Activation of human mGluR4 expressed in CHO cells coexpressing Gqi5 protein assessed as potentiation of glutamate-induced response
reported_endpoint: pEC50
Numbers only, as −log10 of the molar value.

Worked set:
Cc1nc2ccccc2nc1N/N=C/c1ccccc1 : 5.36
Cc1nc2ccccc2nc1N/N=C/c1cccc(O)c1 : 5.62
Cc1nc2ccccc2nc1N/N=C/c1ccccc1O : 5.39
Cc1nc2ccccc2nc1N/N=C/c1ccc(O)cc1 : 5.77

Entry Cc1ccc(N2C(=O)c3ccccc3NC2C(C)c2ccccc2)cc1 (stereo not drawn) , system Metabotropic glutamate receptor 4 (Homo sapiens, UniProt Q14833): what pEC50 was measured?
5.52

###

Target: Metabotropic glutamate receptor 4 (Homo sapiens)
Test: Activation of human mGluR4 expressed in CHO cells coexpressing Gqi5 protein assessed as potentiation of glutamate-induced response relative to glutamate alone
Assay type: cell-based
Set-up: concentration or dose not given beside the values
reported_endpoint: Activity (%)
One number for each entry, in %.

Cc1nc2ccccc2nc1N/N=C/c1cccc(O)c1 : 136
Cc1nc2ccccc2nc1N/N=C/c1ccc(O)cc1 : 144
Cc1nc2ccccc2nc1N/N=C/c1ccccc1 : 129
COC(=O)c1ccc(N2C(=O)c3ccccc3NC2C(C)c2ccccc2)cc1 (stereo not drawn) : 69
Cc1ccc(N2C(=O)c3ccccc3NC2C(C)c2ccccc2)cc1 (stereo not drawn) : 129
Cc1nc2ccccc2nc1N/N=C/c1ccc(F)cc1 : 87

# return Activity for each item in the list
1. CC(c1ccccc1)C1Nc2ccccc2C(=O)N1c1cccc(F)c1 (stereo not drawn)
2. Cc1nc2ccccc2nc1N/N=C/c1ccccc1O

87
57

###

Target: Metabotropic glutamate receptor 4 (Homo sapiens)
Experiment: Activation of human mGluR4 expressed in CHO cells coexpressing Gqi5 protein assessed as potentiation of glutamate-induced response
reported_endpoint: EC50

For orientation, consider the following solved cases.
CC(c1ccccc1)C1Nc2ccccc2C(=O)N1c1cccc(F)c1 (stereo not drawn) : > 10 µM
Cc1nc2ccccc2nc1N/N=C/c1ccc(F)cc1 : > 5 µM

Then there is this compound:
Give the measured EC50 of COC(=O)c1ccc(N2C(=O)c3ccccc3NC2C(C)c2ccccc2)cc1 (stereo not drawn) .
> 10 µM
